Provide the reported melting point of each item.

Could you report melting point for every entry in the following list?
1. Cc1cc(F)ccc1Nc1nc(N(C)c2ccccc2)c2cc(OCCCN(C)C)ccc2n1
2. CCCn1nc(CO)cc1OCc1ccc2ccccc2n1

103 to 104 °C
98 to 99 °C

Could you report melting point for every entry in the following list?
1. NN=C1C(=O)Nc2cccc(Cl)c21
2. OCc1cccc(-c2ccc3nc(-c4ccc(Cl)cc4)cn3c2)c1F
3. O=c1c2cccc3cccc(c32)c2nc3cc(C(F)(F)F)ccc3n12
4. COCCOCCOCC(=O)Nc1cc(C(=O)O)cc([N+](=O)[O-])c1
5. CCOc1ccc(N)cc1OC
6. O=C(O)CCc1c(Sc2ccccc2)c2cc(F)ccc2n1Cc1ccc(Cl)cc1

1: 235 to 236 °C; 2: 200 to 202 °C; 3: 212 to 214 °C; 4: 136 to 137 °C; 5: 54 to 56 °C; 6: 138 to 139 °C

Could you report melting point for every entry in the following list?
1. O=CNc1ccc(F)c(Cl)c1
2. Cc1nc2ccc(C(=O)O)[nH]c-2c1Cc1ccc(Cl)cc1Cl
3. NC(=O)c1nn(S(=O)(=O)c2ccccc2)c2ccccc12
4. CCCCCS(=O)(=O)NC(=O)CCc1ccc(OCCOC)cc1Oc1ncc(C(F)(F)F)cc1Cl

1. 94 to 97 °C
2. 235 to 236 °C
3. 208 to 210 °C
4. 140 to 142 °C

Could you report melting point for every entry in the following list?
1. Cc1nc2cc(NCC(=O)C(C)(C)C)ccc2s1
2. Cc1ccc(Nc2ccccc2NC(=O)CCCc2ccc(N=C(N)c3cccs3)cc2)cc1
3. CCOC(=O)C1C(=O)CC(=O)CC1c1ccccc1 (centres undefined)
4. COc1cc2c(cc1O)C(OC)CN(Cc1cc(OC)c(OC)c(OC)c1)C2 (centres undefined)
5. CC(=Cc1ncon1)c1ccc(Cl)cc1
6. Nc1ncnc2c1nc(O)n2CCc1ccccc1

1: 108 to 111 °C; 2: 66 to 68 °C; 3: 86 to 87 °C; 4: 51 to 54 °C; 5: 56 to 57 °C; 6: 256 to 258 °C

* * *

MEASURED_PARAMETER: melting point (°C)
One number for each entry, in °C.

N#Cc1cccc(C2C3=C(CCS3)NC3=C2SCC3)c1 :: 248

Next compound, melting point to be filled in.
Look up melting point for this compound: CC(=O)OCC(=O)C1C(C)CC2C3C=C(Cl)C4=CC(=O)C=CC4(C)C3C(O)CC21C (stereo not given)
192

* * *

Provide the reported melting point of each item.

Here is how some compounds turned out for melting point.
COc1cccc(C=C2OC(=O)c3ccccc32)c1 :: 119 to 123 °C
CCc1nc2c(N)nc3cc(-c4cncc(CO)c4)ccc3c2n1CC(C)(C)O :: > 250 °C
CC1CC(=O)c2ccc(C(C)C(=O)O)cc2C1 (stereo not given) :: 196 to 199 °C
CC1(Cc2ccc(O)cc2)OCCO1 :: 61 to 64 °C
O=C(c1ccccc1)c1cccc(NC(=O)c2ccn3c2CSC3c2cccnc2)c1 (single isomer, unassigned; (+)) :: 109 °C
COC(=O)c1nn(Cc2ccc(Br)cc2F)c(=O)c2ccc(F)cc12 :: 131 to 134 °C
COc1ccc2c(=O)c(-c3ccc(OCC4CO4)cc3)coc2c1 (stereo not given) :: 153 to 154 °C
CCC1(COC(=O)C(C)(C)C)COC(=O)C(CC)(CC)N1 (stereo not given) :: 37 to 41 °C
O=C(O)CCCCCCCCn1nc(-c2ccccc2)c(-c2ccccc2)cc1=O :: 100 to 103 °C

Next compound, melting point to be filled in.
Look up melting point for this compound: CCOC(=O)c1cc(F)c(SC)nc1NC1CC1
67 to 69 °C
